# System: KRas G12C (Homo sapiens, UniProt P01116, G12C)
# Construct: NCI-H358 cells (ATCC CRL-5807) express KRas G12C
# Sequence (P01116 1-188 isoform P01116-2 G12C): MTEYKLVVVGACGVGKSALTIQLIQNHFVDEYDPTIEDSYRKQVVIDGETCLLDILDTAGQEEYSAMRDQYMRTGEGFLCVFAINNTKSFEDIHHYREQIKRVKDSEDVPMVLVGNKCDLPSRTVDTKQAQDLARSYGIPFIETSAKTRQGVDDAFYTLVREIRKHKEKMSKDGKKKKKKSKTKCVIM
# Assay comment: Inhibition of KRas G12C-dependent cell growth: Phospho-ERK in NCI-H358 cells
# Study conditions: NCI-H358 cells expressing KRas G12C; Phospho-ERK (Thr202/Tyr204) normalized to GAPDH; 3 hours compound; 4 parameter fit
Observation type: IC50 (nM)

Solved entries (count: 2):
C=C(F)C(=O)N1CCN(c2nc(OC[C@H]3[C@@H]4CC[C@@H](C4)N3CCF)nc3c(F)c(-c4cccc5ccc(F)c(Cl)c45)ncc23)C[C@@H]1CC#N	31
C=CC(=O)N1CC[C@@H]2[C@H]1CN2c1nc(OC[C@@H]2C[C@@H](F)CN2C)nc2c(F)c(-c3cccc4ccc(F)c(Cl)c34)ncc12	20

[1] C=C(F)C(=O)N1CCN(c2nc(OCCCN3C[C@@H]4C[C@H]3CO4)nc3c(F)c(-c4cccc5cccc(C)c45)ncc23)C[C@@H]1CC#N
[2] C=C(F)C(=O)N1CCN(c2nc(OC[C@H]3CN(C)CCO3)nc3c(F)c(-c4cccc5ccc(F)c(Cl)c45)ncc23)C[C@@H]1CC#N
In the pair 1 and 2 , the larger recorded IC50 belongs to which? State the label of the item chosen.
1
(1: 260 nM, 2: 68 nM)

[I] C=CC(=O)N1CCN(c2ncnc3c(F)c(-c4ccccc4F)ncc23)[C@@H](C)C1
[II] C=CC(=O)N1CC2(CCN(c3nc(OC[C@@H]4CCCN4C)nc4c(F)c(-c5cccc6cccc(Cl)c56)ncc34)CC2)C1
Exercise: compare I and II ; which one has the greater IC50? # respond with the chosen item's label
I

[1] C=C(F)C(=O)N1CCN(c2nc(OC[C@@H]3CCCN3C)nc3c(F)c(-c4c(O)cccc4F)ncc23)C[C@@H]1CC#N
[2] C=C(F)C(=O)N1CCN(c2nc(OC[C@@H]3C[C@@H](OC)CN3C(C)C)nc3c(F)c(-c4cccc5ccc(F)c(Cl)c45)ncc23)C[C@@H]1CC#N
Hi team, can someone confirm which has the larger IC50: 1 or 2 ? Thanks. Identify your pick by its label.
1
(1: 1100 nM, 2: 18 nM)

[1] C#Cc1cccc2cccc(-c3ncc4c(N5C[C@@H]6[C@H]5CCN6C(=O)C=C)ncnc4c3F)c12
[2] C#Cc1cccc2cccc(-c3ncc4c(N5C[C@@H]6[C@H]5CCN6C(=O)C=C)nc(N5CC(N(C)C)C5)nc4c3F)c12
[3] C=C(F)C(=O)N1CCN(c2nc(OC[C@H]3[C@@H]4CC[C@@H](C4)N3CC(F)F)nc3c(F)c(-c4cccc5ccc(F)c(Cl)c45)ncc23)C[C@@H]1CC#N
Your job: order these 3 records by IC50, ascending. Could you list the labels in the order requested?
2, 1, 3

---

# System: KRas G12C (Homo sapiens, UniProt P01116, G12C)
# Construct: NCI-H358 cells (ATCC CRL-5807) express KRas G12C
# Assay comment: Inhibition of KRas G12C-dependent cell growth: Phospho-ERK in NCI-H358 cells
# Study conditions: NCI-H358 cells expressing KRas G12C; Phospho-ERK (Thr202/Tyr204) normalized to GAPDH; 3 hours compound; 4 parameter fit
pIC50: −log10 of the molar value.
Observation type: pIC50

C=CC(=O)N1CCN(c2nc(OC[C@@H]3CCCN3C)nc3cc(-c4cccc5ccccc45)ncc23)C[C@@H]1CC#N [Example 5]	7.35

[A] C=CC(=O)N1C2CCC1CN(c1nc(OC[C@@H]3CCCN3C)nc3c(F)c(-c4cc(O)cc5ccccc45)ncc13)C2 [Example 9]
[B] C=C(F)C(=O)N1CCN(c2nc(OC[C@@H]3CCCN3C)nc3c(F)c(-c4cccc5cccc(C)c45)ncc23)C[C@@H]1CC#N [Example 11]
[C] C=CC(=O)N1CCN(c2nc(OC[C@@H]3CCCN3C)nc3c(F)c(-c4cccc5ccccc45)ncc23)C[C@@H]1CC#N [Example 7]
[D] O=C(/C=C/CF)N1CC[C@@H]2[C@H]1CN2c1ncnc2c(F)c(-c3cccc4ccc(F)c(Cl)c34)ncc12 [Example 221]
Exam item: list the entries in increasing order of pIC50. Would you mind listing the labels in the order requested?
D, A, B, C
(D: 5.71, A: 6.85, B: 7.08, C: 8.15)

[a] C#Cc1cccc2cc(O)cc(-c3ncc4c(N5C[C@@H]6[C@H]5CCN6C(=O)C=C)nc(OCC56CCCN5CCC6)nc4c3F)c12 [Example 293]
[b] C=C(F)C(=O)N1CCN(c2nc(OCC34CCCN3CCOC4)nc3c(F)c(-c4cccc5ccc(F)c(Cl)c45)ncc23)C[C@@H]1CC#N (stereo partly shown) [Example 144]
Quick one: lower pIC50, a or b ? Kindly give the label for the entry you pick.
a
(a: 7.19, b: 7.46)

[1] C=CC(=O)N1CC[C@@H]2[C@H]1[C@H](C)N2c1ncnc2c(F)c(-c3cccc4ccc(F)c(Cl)c34)ncc12 [Example 280]
[2] C=CC(=O)N1CC2CC1CN2c1nc(OC[C@@H]2CCCN2C)nc2c(F)c(-c3cncc4cccc(Cl)c34)ncc12 (stereo partly shown) [Example 98]
[3] C=CC(=O)N1CC2(CCN(c3nc(OC[C@@H]4CCCN4C)nc4c(F)c(-c5c(C)ccc6[nH]ncc56)ncc34)CC2)C1 [Example 83]
[4] C=C(F)C(=O)N1CCN(c2nc(OC[C@@H]3CCCN3C)nc3c(F)c(-c4nc(N)cc5ccccc45)ncc23)C[C@@H]1CC#N [Example 107]
Form: Sort by [pIC50] Order [ ascending ] The labels, placed in the requested order, form the answer.
2, 3, 4, 1
(2: 5.00, 3: 5.46, 4: 6.81, 1: 7.05)

---

# System: KRas G12C (Homo sapiens, UniProt P01116, G12C)
# Construct: NCI-H358 cells (ATCC CRL-5807) express KRas G12C
# Assay comment: Inhibition of KRas G12C-dependent cell growth: Phospho-ERK in NCI-H358 cells
# Study conditions: NCI-H358 cells expressing KRas G12C; Phospho-ERK (Thr202/Tyr204) normalized to GAPDH; 3 hours compound; 4 parameter fit
# Description: The cellular inhibition of KRAs G12C by exemplary compounds of the present invention was determined by measuring the amount of a downstream marker of KRas activity, phosphorylated ERK (“Phospho-ERK”). […] The amount Phospho-ERK was determined using an antibody specific for the phosphorylated form of ERK and compared to the amount of GAPDH. […] The pERK(Thr202/Tyr204) signal was normalized with the GAPDH signal and percent of DMSO control values were calculated. […]
Observation type: IC50 (nM)

C=C(F)C(=O)N1CCN(c2nc(OC[C@@H]3CCCN3C)nc3c(F)c(-c4cccc5cnn(C)c45)ncc23)C[C@@H]1CC#N [Example 84]	765

[I] C#Cc1cccc2cccc(-c3ncc4c(N5CCN(C(=O)C=C)CC5)ncnc4c3F)c12 [Example 214]
[II] C#Cc1c(F)ccc2cccc(-c3ncc4c(N5C[C@@H]6[C@H]5CCN6C(=O)C(=C)F)ncnc4c3F)c12 [Example 299]
// pick larger IC50 from pair: I vs II Response format: the label of the selected entry.
I

[a] C=C(F)C(=O)N1CCN(c2nc(OC[C@@H]3CN(C)C[C@@H]3F)nc3c(F)c(-c4cccc5ccc(F)c(Cl)c45)ncc23)C[C@@H]1CC#N [Example 194]
[b] CN1CC(F)(F)C[C@H]1COc1nc(N2CCN(C(=O)/C=C/CF)[C@@H](CC#N)C2)c2cnc(-c3cncc4cccc(Cl)c34)c(F)c2n1 [Example 47]
[c] C=CC(=O)N1CCN(c2ncnc3c(F)c(-c4cccc5cccc(C)c45)ncc23)C[C@@H]1CC#N [Example 41]
Order the 3 molecules from highest to lowest IC50. List the labels according to the requested ordering.
c, a, b

---

# System: KRas G12C (Homo sapiens, UniProt P01116, G12C)
# Construct: NCI-H358 cells (ATCC CRL-5807) express KRas G12C
# Assay comment: Inhibition of KRas G12C-dependent cell growth: Phospho-ERK in NCI-H358 cells
# Study conditions: NCI-H358 cells expressing KRas G12C; Phospho-ERK (Thr202/Tyr204) normalized to GAPDH; 3 hours compound; 4 parameter fit
Observation type: IC50 (nM)

Consider the following illustrative entries.
C=C(F)C(=O)N1CCN(c2nc(OC[C@@H]3CCCN3C)nc3c(Cl)c(-c4cccc5cccc(C)c45)ncc23)C[C@@H]1CC#N	137
C=CC(=O)N1CCN(c2ncnc3c(F)c(-c4cccc5ccc(F)c(Cl)c45)ncc23)CC1C#N (centres unmarked)	6050
C=CC(=O)N1CCN(c2ncnc3c(F)c(-c4ccccc4C(C)C)ncc23)CC1	10000
C=C(F)C(=O)N1CCN(c2nc(OC[C@@H]3C[C@@H](OC)CN3C)nc3c(F)c(-c4cccc5cccc(C)c45)ncc23)C[C@@H]1CC#N	50

[A] C=CC(=O)N1CC2(CCN(c3nc(OC4CCN(C5CCOCC5)CC4)nc4c(F)c(-c5cccc6cccc(Cl)c56)ncc34)CC2)C1
[B] C=CC(=O)N1CCN(c2nc(OC[C@@H]3CCCN3C)nc3c(F)c(-c4cccc5ccc(F)c(Cl)c45)ncc23)CC1
Smaller IC50 value? Options are A and B Give the chosen item's label as your response.
B
(B: 22 nM, A: 1350 nM)

[a] Cc1cccc2cncc(-c3ncc4c(N5CCN(C(=O)/C=C/CF)[C@@H](CC#N)C5)nc(OCCCN5C[C@@H]6C[C@H]5CO6)nc4c3F)c12
[b] CC#CC(=O)N1CCN(c2ncnc3c(F)c(-c4cccc5ccc(F)c(Cl)c45)ncc23)CC1
Which entry has a larger number for IC50, a or b ? Field: selected label. Fill in the label of the entry you choose.
b

[a] C#Cc1c(F)ccc2cccc(-c3ncc4c(N5C[C@@H]6[C@H]5CCN6C(=O)C=C)ncnc4c3F)c12
[b] C=CC(=O)N1CCN(c2ncnc3c(F)c(-c4cccc5cc(F)ccc45)ncc23)CC1
[c] C=C(F)C(=O)N1CCN(c2nc(Oc3cccc4c3CCN(C)C4)nc3c(F)c(-c4cccc5ccc(F)c(Cl)c45)ncc23)C[C@@H]1CC#N
[d] C=C(F)C(=O)N1CCN(c2nc(OC[C@@H]3CCCN3C(C)C)nc3c(F)c(-c4cccc5ccc(F)c(Cl)c45)ncc23)C[C@@H]1CC#N
[e] O=C(/C=C/C(F)(F)F)N1CC[C@@H]2[C@H]1CN2c1ncnc2c(F)c(-c3cccc4ccc(F)c(Cl)c34)ncc12
Sort ascending by IC50. Write the labels out in the order the request specifies.
a, d, e, c, b
(a: 30 nM, d: 63 nM, e: 1140 nM, c: 6850 nM, b: 10000 nM)

[A] C=CC(=O)N1CCN(c2ncnc3c(F)c(-c4c(C)c(Cl)cc5[nH]ncc45)ncc23)C[C@@H]1CC#N
[B] C=CC(=O)N1CCN(c2ncnc3c(F)c(-c4cccc5ccc(F)c(Cl)c45)ncc23)[C@@H](C)C1
# argmax over IC50 for candidates A and B Let me know the label of the one you choose.
B
(B: 3960 nM, A: 91 nM)

[I] C=CC(=O)N1CCN(c2ncnc3c(F)c(-c4cc(C#N)cc5ccccc45)ncc23)CC1
[II] C=CC(=O)N1CCN(c2ncnc3c(F)c(-c4cc(O)cc5ccccc45)ncc23)C[C@@H]1CC#N
[III] C=C(F)C(=O)N1CCN(c2nc(OCC3CCN3CC)nc3c(F)c(-c4cccc5ccc(F)c(Cl)c45)ncc23)C[C@@H]1CC#N (some centres unmarked)
[IV] C=CC(=O)N1CCN(c2nc(OC[C@@H]3CCCN3C)nc3c(F)c(-c4cccc5cccc(Cl)c45)ncc23)[C@@H](C)C1
[V] C=CC(=O)N1CC[C@@H]2[C@H]1CN2c1nc(OC2CC2)nc2c(F)c(-c3cccc4ccc(F)c(Cl)c34)ncc12
# ascending order, key=IC50 As an answer, provide the labels arranged in the order called for.
II, III, IV, V, I

[A] C=CC(=O)N1[C@@H](C)CN(c2ncnc3c(F)c(-c4cccc5ccc(F)c(Cl)c45)ncc23)C[C@@H]1C
[B] C=C(F)C(=O)N1CCN(c2nc(N3CC(N(C)C)C3)nc3c(F)c(-c4cccc5cccc(Cl)c45)ncc23)C[C@@H]1CC#N
Pick one, A or B : lowest reported IC50. Your choice should be expressed through its label.
B

[1] C=CC(=O)N1CCC2(C1)CN(c1ncnc3c(F)c(-c4cccc5ccc(F)c(Cl)c45)ncc13)C2
[2] C=C(F)C(=O)N1CCN(c2nc(OC[C@@H]3CC(F)(F)CN3C)nc3c(F)c(-c4cccc5ccc(F)c(Cl)c45)ncc23)C[C@@H]1CC#N
[3] C=C(F)C(=O)N1CCN(c2nc(OC[C@H]3CCN3CC)nc3c(F)c(-c4cccc5ccc(F)c(Cl)c45)ncc23)C[C@@H]1CC#N
[4] C=C(F)C(=O)N1CCN(c2nc(OCC3(C)C(OC)CN3C)nc3c(F)c(-c4cccc5ccc(F)c(Cl)c45)ncc23)C[C@@H]1CC#N (some centres unmarked)
rank_up(items): orders items by reported IC50 in ascending numerical order. Please reply with the labels ordered as requested. Many thanks.
4, 3, 2, 1
